Every entry's value here was drawn from patent US20070280945A1.

Reported pKd values follow for various binders
System tested: T1, recombinant hIL-6R protein, monomeric form (human, UniProt P08887 20-358)
T1 construct: also called monomeric hIL-6R; Human IL6R
T1 sequence: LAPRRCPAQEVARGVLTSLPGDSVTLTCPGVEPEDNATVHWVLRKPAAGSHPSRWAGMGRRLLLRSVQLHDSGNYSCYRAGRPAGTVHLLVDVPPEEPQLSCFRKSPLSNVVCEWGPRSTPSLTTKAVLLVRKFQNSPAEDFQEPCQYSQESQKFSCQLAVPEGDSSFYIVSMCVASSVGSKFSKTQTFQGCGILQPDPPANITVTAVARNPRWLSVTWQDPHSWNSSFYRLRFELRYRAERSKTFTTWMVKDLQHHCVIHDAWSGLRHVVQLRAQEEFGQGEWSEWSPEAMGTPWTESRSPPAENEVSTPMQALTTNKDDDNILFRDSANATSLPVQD
Run description: SPR (BIAcore), antibody captured on goat anti-mouse Fc, monomeric IL-6R 1.25-40 nM injected
Please treat pKd as minus the base-10 logarithm of the molar concentration.

[[record]]
binder = "VQ8A9-6 (antibody, V domains shown, Human variable regions with mouse constant region (hybridoma-derived chimeric antibody); also called VQ8A9-6 mIgG1) VH: EVQLVESGGNLVQPGRSLRLSCAASGFIFDDYAMHWVRQAPGKGLEWVSGISWNSGSIGYADSVKGRFTISRDNAKNSLYLQMNSLRAEDTALYYCAKDGGSSWLPFVYYYGMDVWGQGTTVTVSS VL: EIVMTQSPATLSVSPGERATLSCRASQSISSNFAWYQQKPGQAPRLLIYGASTRATGIPARFSGSGSGTDFTLTISSLQSEDFAVYYCQQYSSWPPYTFGQGTKLEIK"
val = 9.42

[[record]]
binder = "VV6A9-5 (antibody, V domains shown, Human variable regions with mouse constant region; also called VV6A9-5 mIgG2a) VH: EVQLVESGGGLVQPGRSLRLSCAASGFTFDDYALHWVRQAPGKGLEWVSGVSWNGGRIGYADSVKGRFTISRDNAKNSLFLQMNSLRVEDTALYYCAKGRDAFDIWGQGTLVTVSS VL: DIQMTQSPSSVSASVGDRVTITCRASQGISSWLAWYQQKPGKAPKLLIYAASSLQSGVPSRFSGSGSGTDFTLTISSLQPEDFATYYCQHAYSFPYTFGQGTKLEIK"
val = 9.79

[[record]]
binder = "VQ8F11-21 (antibody, V domains shown, Human variable regions with mouse constant region; also called VQ8F11-21 mIgG2a) VH: EVQLVESGGGLVQPGRSLRLSCAASRFTFDDYAMHWVRQAPGKGLEWVSGISWNSGRIGYADSVKGRFTISRDNAENSLFLQMNGLRAEDTALYYCAKGRDSFDIWGQGTMVTVSS VL: DIQMTQSPSSVSASVGDRVTITCRASQGISSWLAWYQQKPGKAPKLLIYGASSLESGVPSRFSGSGSGTDFTLTISSLQPEDFASYYCQQANSFPYTFGQGTKLEIK"
val = 10.29


Query: # query: pKd of entry VV1G4-7 (antibody, IgG2a, V domains shown, Human variable regions with mouse constant region) VH: QVQLVQSGAEVKEPGASVKVSCKASGYTFTSYDIIWVRQATGQGLEWMGWMNPNSGNTGYTQNLQGRVTLTRNTSITTVYMELSSLSSEDTAVYYCARDYSSHYYGLDVWGQGTTVTVSS VL: DIQLTQSPSFLSTSIGDRVTITCWASQDISNYLAWYQQKPGKAPKLLIFVASTLQSGVPSRFSGSGSGTEFTLTISSLQPEDFATYYCQQFNSYPLTFGGGTKVEIK
Result: 9.62
